B1: TLE6 (parent)
chain: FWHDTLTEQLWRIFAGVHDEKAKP

- Variants of: B1
- run description: protein stability index of a GFP-peptide fusion (GPS, HEK-293T) (PSI 1-6); higher = more stable;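 further: lentivirally expressed fusions sorted by FACS into six bins by GFP to DsRed ratio, PSI derived from sequencing read proportions per bin multiplied by bin number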
- condition context: c terminus: a fixed tail appended
Listing of recorded protein stability index by entry.

Example entries begin here.
FFHDTLTEQLWRIFAGVHDEKAKP [W2F]: 1.9
FWHDFLTEQLWRIFAGVHDEKAKP [T5F]: 2.25
FWHDTLTEQLWRIFAGVHDEKWKP [A22W]: 1.38
FCHDTLTEQLWRIFAGVHDEKAKP [W2C]: 1.66
FYHDTLTEQLWRIFAGVHDEKAKP [W2Y]: 1.85
FWHDTETEQLWRIFAGVHDEKAKP [L6E]: 1.91

Item: FWHDTLTEQAWRIFAGVHDEKAKP [L10A] | protein stability index: 2.17

Entry FWHDTLVEQLWRIFAGVHDEKAKP [T7V] ; protein stability index = 1.86

Consider FWHDTLTEQLWRIFAGVHDEKAKM [P24M] . Its measured protein stability index is 1.64

// protein stability index lookup, variant = FWHDTLTEQLWRIFATVHDEKAKP [G16T] , result: 1.62

The recorded protein stability index for entry FWHDTLTEQLWCIFAGVHDEKAKP [R12C] equals 2.88
